- protocol_notes: in vitro
- Assay type: cell-based, murine
- conditions_used: mouse
experimental_readout: viability at 48 h, 15.625 µg/mL (%)

1. C[C@@H]1C[C@H]2[C@@H]3CCC4=CC(=O)C=C[C@]4(C)[C@@]3(F)[C@@H](O)C[C@]2(C)[C@@]1(O)C(=O)CO [Dexamethasone, dexamethasone, reference compound] | 90

---

- protocol_notes: in vitro
- Type: cell-based, murine
- conditions_used: mouse
experimental_readout: viability at 48 h, 125 µg/mL (%)

1. C[C@@H]1C[C@H]2[C@@H]3CCC4=CC(=O)C=C[C@]4(C)[C@@]3(F)[C@@H](O)C[C@]2(C)[C@@]1(O)C(=O)CO [Dexamethasone, dexamethasone, reference compound] | 96

---

- protocol_notes: in vitro
- Type: cell-based, murine
- conditions_used: mouse
Ends that are not written are not given here.
experimental_readout: viability at 48 h, 1.5625 μg/mL (%)

1. FAKKFAK [IS 111, Phe-Ala-Lys-Lys-Phe-Ala-Lys] | 84.5

---

- protocol_notes: in vitro
- Format: cell-based, murine
- conditions_used: mouse
experimental_readout: viability at 48 h, 31.25 µg/mL (%)

1. C[C@@H]1C[C@H]2[C@@H]3CCC4=CC(=O)C=C[C@]4(C)[C@@]3(F)[C@@H](O)C[C@]2(C)[C@@]1(O)C(=O)CO [Dexamethasone, dexamethasone, reference compound] | 82.8

---

- protocol_notes: in vitro
- Format: cell-based, murine
- conditions_used: mouse
- Protocol: Cell viability of synthetic peptides on the growth of RAW264.7 cells was measured using the methyl thiazolyl tetrazolium (MTT) assay after 48 h. […] Absorbance was monitored at 575 nm using a microplate reader. Maximum cytotoxicity (100%) was determined by cells incubated with 1% Triton X-100; PBS was used as a negative control. […] The average absorbance for each sample group was used to evaluate cell viability. […] The percentages of cell viability and LC50 of cells were calculated by using the formula below. […]
Ends that are not written are not given here.
experimental_readout: viability at 48 h, 50 μg/mL (%)

1. FAKKFAK [IS 111, Phe-Ala-Lys-Lys-Phe-Ala-Lys] | 95

---

- protocol_notes: in vitro
- Type: cell-based, murine
- conditions_used: mouse
experimental_readout: viability at 48 h, 62.5 µg/mL

1. C[C@@H]1C[C@H]2[C@@H]3CCC4=CC(=O)C=C[C@]4(C)[C@@]3(F)[C@@H](O)C[C@]2(C)[C@@]1(O)C(=O)CO [Dexamethasone, dexamethasone, reference compound] | 91.4%

---

- protocol_notes: in vitro
- Format: cell-based, murine
- conditions_used: mouse
- Protocol: Cell viability of synthetic peptides on the growth of RAW264.7 cells was measured using the methyl thiazolyl tetrazolium (MTT) assay after 48 h. […] Absorbance was monitored at 575 nm using a microplate reader. Maximum cytotoxicity (100%) was determined by cells incubated with 1% Triton X-100; PBS was used as a negative control. […] The average absorbance for each sample group was used to evaluate cell viability. […] The percentages of cell viability and LC50 of cells were calculated by using the formula below. […]
experimental_readout: viability at 48 h, 500 µg/mL

1) C[C@@H]1C[C@H]2[C@@H]3CCC4=CC(=O)C=C[C@]4(C)[C@@]3(F)[C@@H](O)C[C@]2(C)[C@@]1(O)C(=O)CO [Dexamethasone, dexamethasone, reference compound] | 84.6%

---

- protocol_notes: in vitro
- Format: cell-based, murine
- conditions_used: mouse
Ends that are not written are not given here.
experimental_readout: viability at 48 h, 6.25 μg/mL (%)

1) FAKKFAK [IS 111, Phe-Ala-Lys-Lys-Phe-Ala-Lys] | 90.2

---

- protocol_notes: in vitro
- Type: cell-based, murine
- conditions_used: mouse
Ends that are not written are not given here.
experimental_readout: viability at 48 h, 12.5 μg/mL (%)

1. FAKKFAK [IS 111, Phe-Ala-Lys-Lys-Phe-Ala-Lys] | 99.7

---

- protocol_notes: in vitro
- Format: cell-based, murine
- conditions_used: mouse
Ends that are not written are not given here.
experimental_readout: viability at 48 h, 25 μg/mL (%)

1) FAKKFAK [IS 111, Phe-Ala-Lys-Lys-Phe-Ala-Lys] | 96.4

src = patent US20260226101A1
